- Experimental target: P-glycoprotein (ABCB1) (Homo sapiens, UniProt P08183)
- Sequence (P08183 whole entry): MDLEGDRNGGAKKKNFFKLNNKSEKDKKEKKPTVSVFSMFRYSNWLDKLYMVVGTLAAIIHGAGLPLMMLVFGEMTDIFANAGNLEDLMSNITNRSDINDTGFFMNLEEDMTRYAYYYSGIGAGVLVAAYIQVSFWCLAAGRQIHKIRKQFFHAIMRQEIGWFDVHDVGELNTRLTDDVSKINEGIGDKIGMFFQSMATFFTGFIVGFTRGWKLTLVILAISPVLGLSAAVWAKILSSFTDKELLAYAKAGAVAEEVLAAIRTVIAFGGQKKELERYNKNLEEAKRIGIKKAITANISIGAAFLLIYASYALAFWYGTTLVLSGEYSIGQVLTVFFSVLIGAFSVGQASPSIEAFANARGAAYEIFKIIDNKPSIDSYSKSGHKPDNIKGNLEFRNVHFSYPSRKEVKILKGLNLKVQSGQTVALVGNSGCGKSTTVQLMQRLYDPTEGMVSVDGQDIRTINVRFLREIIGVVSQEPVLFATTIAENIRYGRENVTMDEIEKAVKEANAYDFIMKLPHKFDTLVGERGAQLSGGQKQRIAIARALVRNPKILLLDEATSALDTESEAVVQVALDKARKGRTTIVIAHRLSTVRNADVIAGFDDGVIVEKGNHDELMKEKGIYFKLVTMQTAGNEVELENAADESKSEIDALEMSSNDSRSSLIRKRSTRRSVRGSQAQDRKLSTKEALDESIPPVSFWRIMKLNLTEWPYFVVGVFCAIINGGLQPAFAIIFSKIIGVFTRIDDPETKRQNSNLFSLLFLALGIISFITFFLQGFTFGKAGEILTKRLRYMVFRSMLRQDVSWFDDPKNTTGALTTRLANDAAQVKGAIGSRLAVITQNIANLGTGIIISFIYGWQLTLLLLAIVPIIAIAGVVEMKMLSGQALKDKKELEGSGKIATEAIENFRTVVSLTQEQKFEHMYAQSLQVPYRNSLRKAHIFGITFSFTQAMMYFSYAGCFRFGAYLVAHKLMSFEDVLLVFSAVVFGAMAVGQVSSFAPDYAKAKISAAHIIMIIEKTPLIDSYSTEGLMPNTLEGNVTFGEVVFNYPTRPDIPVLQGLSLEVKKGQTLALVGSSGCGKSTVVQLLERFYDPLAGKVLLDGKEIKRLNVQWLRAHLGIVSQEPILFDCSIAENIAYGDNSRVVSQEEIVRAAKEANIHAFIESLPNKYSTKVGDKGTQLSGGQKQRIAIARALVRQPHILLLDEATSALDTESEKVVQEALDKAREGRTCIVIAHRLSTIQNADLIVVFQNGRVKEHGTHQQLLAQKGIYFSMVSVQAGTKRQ
- Assay: Inhibition of P-glycoprotein-mediated multidrug resistance in adriamycin-resistant human A2780 cells assessed as calcein accumulation at 25 ug/ml after 15 mins relative to control
- Format: cell-based
- Condition: probe calcein, values are per cent of control
response, % of control at 0.25 h, 25 ug/ml values, listed per item
Parameter: response, % of control at 0.25 h, 25 ug/ml (%)

{"Compound structure": "COc1cc([C@@H]2O[C@H](c3cc(OC)c4c(c3)OCO4)[C@@H](COC(C)=O)[C@@H]2COC(C)=O)cc(OC)c1O", "Reading unit": "%", "Recorded measurement": 101}
{"Compound structure": "COc1cc([C@H]2O[C@@H](c3cc(OC)c4c(c3)OCO4)[C@@H](COC(C)=O)[C@@H]2CO)cc2c1OCO2", "Reading unit": "%", "Recorded measurement": 94}
{"Compound structure": "CC(C)[C@@H](C)/C=C/[C@@H](C)[C@H]1CC[C@H]2[C@@]3(O)C=C[C@@]4(O)C[C@@H](O)CC[C@]4(C)[C@H]3CC[C@]12C", "Reading unit": "%", "Recorded measurement": 95}
{"Compound structure": "COc1cc([C@@H]2O[C@H](c3cc(OC)c4c(c3)OCO4)[C@@H](COC(C)=O)[C@@H]2CO)cc(OC)c1OC", "Reading unit": "%", "Recorded measurement": 138}
